# percent inhibition of human Factor XI mRNA, relative to untreated control cells values compiled below
tested on: human Factor XI mRNA; assay: Dose-dependent inhibition in HepG2 cells, lipofectin (Example 5); format: cell-based; details: 37.5 nM, 16 hours
property.name: percent inhibition of human Factor XI mRNA, relative to untreated control cells (%)

substance="416925 (antisense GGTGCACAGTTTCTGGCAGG; 3-14-3 chimeric gapmer, wing sugar chemistry not given here, further chemistry not given here) [compound 416925]" value_unit=% recorded_result=67
substance="416999 (antisense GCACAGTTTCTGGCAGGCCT; 2-13-5 gapmer, wing sugar chemistry not given here, further chemistry not given here) [compound 416999]" value_unit=% recorded_result=72
substance="416858 (antisense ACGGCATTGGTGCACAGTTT; 5-10-5 gapmer, wing sugar chemistry not given here, further chemistry not given here) [compound 416858]" value_unit=% recorded_result=75
